System: PI3Kα mutant cancer cells HCC1954 (H1047R)
assay name: Cell Titer-Glo proliferation inhibition, HCC1954
Type: cell-based
assay context: Homo sapiens, 48 to 96 hours
observed property: pIC50
Quick note: pIC50 means taking -log10 of the concentration in moles per liter.

C[C@H](Nc1ccc2c(c1)OCCn1cc(N3C(=O)OC[C@H]3CC#N)nc1-2)C(N)=O has a reported pIC50 of 6.85

C[C@H](Nc1ccc2c(c1)OCCn1cc(N3C(=O)CN(C)C[C@H]3C(F)F)nc1-2)C(N)=O has a reported pIC50 of 6.22

C[C@H](Nc1ccc2c(c1)OCCn1cc(N3C(=O)COC[C@H]3C(F)F)nc1-2)C(N)=O has a reported pIC50 of 7.15

C[C@H](Nc1ccc2c(c1)OCCn1cc(N3C(=O)SC[C@H]3CC#N)nc1-2)C(N)=O has a reported pIC50 of 6.87

---

experimental target: PI3Kγ (Homo sapiens)
Construct: purchased Thermofisher PV4786
Sequence (P48736 whole entry): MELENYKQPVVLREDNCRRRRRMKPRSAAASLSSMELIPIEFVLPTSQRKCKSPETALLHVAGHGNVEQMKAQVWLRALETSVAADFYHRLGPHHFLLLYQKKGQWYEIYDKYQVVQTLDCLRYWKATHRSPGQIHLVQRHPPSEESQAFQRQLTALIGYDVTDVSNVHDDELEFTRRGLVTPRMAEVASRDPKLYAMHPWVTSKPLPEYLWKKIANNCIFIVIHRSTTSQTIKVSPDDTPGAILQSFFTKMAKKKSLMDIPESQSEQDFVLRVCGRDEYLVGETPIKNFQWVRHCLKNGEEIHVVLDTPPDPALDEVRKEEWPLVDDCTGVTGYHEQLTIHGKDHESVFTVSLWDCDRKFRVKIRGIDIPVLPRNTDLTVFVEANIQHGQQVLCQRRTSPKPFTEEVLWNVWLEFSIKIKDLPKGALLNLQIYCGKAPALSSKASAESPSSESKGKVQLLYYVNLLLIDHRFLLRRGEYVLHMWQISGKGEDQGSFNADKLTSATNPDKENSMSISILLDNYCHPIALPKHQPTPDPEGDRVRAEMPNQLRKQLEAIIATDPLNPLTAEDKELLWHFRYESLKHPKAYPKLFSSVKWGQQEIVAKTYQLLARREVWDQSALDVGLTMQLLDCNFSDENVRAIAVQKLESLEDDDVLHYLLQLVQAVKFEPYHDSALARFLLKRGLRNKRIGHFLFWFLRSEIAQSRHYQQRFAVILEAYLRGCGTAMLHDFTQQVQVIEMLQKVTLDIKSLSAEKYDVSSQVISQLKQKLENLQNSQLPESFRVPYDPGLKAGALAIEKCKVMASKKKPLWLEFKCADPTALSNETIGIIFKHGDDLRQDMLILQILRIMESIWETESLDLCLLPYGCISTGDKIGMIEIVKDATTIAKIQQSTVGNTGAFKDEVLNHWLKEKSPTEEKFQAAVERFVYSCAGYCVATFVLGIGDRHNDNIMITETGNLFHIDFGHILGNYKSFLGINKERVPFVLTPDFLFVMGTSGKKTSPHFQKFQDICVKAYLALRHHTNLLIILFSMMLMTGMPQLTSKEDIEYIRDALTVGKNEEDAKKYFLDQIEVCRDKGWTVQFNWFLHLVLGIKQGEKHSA
assay name: ADP-Glo lipid kinase assay, PI3Kγ kinase activity
Assay type: biochemical
assay context: 0.4 nM enzyme, 120 min, 50 μM ATP
observed property: pIC50
Quick note: pIC50 means taking -log10 of the concentration in moles per liter.

C[C@H](Nc1ccc2c(c1)OCCn1cc(N3C(=O)OC[C@H]3CC#N)nc1-2)C(N)=O has a reported pIC50 of 7.13

C[C@H](Nc1ccc2c(c1)OCCn1cc(N3C(=O)CC[C@H]3C(F)F)nc1-2)C(N)=O has a reported pIC50 of 6.29

C[C@H](Nc1ccc2c(c1)OCCn1c-2nc(N2C(=O)OC[C@H]2C(F)F)c1F)C(N)=O has a reported pIC50 of 5.75

C[C@H](Nc1ccc2c(c1)OCCn1cc(N3C(=O)CC[C@H]3CC#N)nc1-2)C(N)=O has a reported pIC50 of 6.30

---

assay name: Toxicokinetics in the 7-day repeated intragastric administration study in SD rats
Type: in vivo, Sprague-Dawley (SD) rats
assay context: Sprague-Dawley, rat, plasma, po, 30 mg/kg intragastric once a day, after the last administration, male, read-out: average system exposure AUC
observed property: AUC

C[C@H](Nc1ccc2c(c1)OCCn1cc(N3C(=O)OC[C@H]3C(F)F)nc1-2)C(N)=O [GDC-0077, reference compound] has a reported AUC of 3000 ng·h/mL

C[C@H](Nc1ccc2c(c1)OCCn1cc(N3C(=O)SC[C@H]3C(F)F)nc1-2)C(N)=O has a reported AUC of 11400 ng·h/mL

---

assay name: Pharmacokinetic (PK) assay in mice
Type: in vivo
assay context: male, Balb/c, mouse, plasma, po, single intragastric 5 mg/kg, read-out: Peak time tmax
Procedure: […] The main parameters were calculated using WinNonlin 6.1.
I'd be grateful if you could share measured Tmax for these entries.
Unit min implied. Number only.

C[C@H](Nc1ccc2c(c1)OCCn1cc(N3C(=O)SC[C@H]3C(F)F)nc1-2)C(N)=O has a reported Tmax of 30

C[C@H](Nc1ccc2c(c1)OCCn1cc(N3C(=O)O[C@H](C)[C@H]3C(F)F)nc1-2)C(N)=O has a reported Tmax of 60

COC[C@H](Nc1ccc2c(c1)OCCn1cc(N3C(=O)SC[C@H]3C(F)F)nc1-2)C(N)=O has a reported Tmax of 30

C[C@H](Nc1ccc2c(c1)OCCn1cc(N3C(=O)N(C)C[C@H]3C(F)F)nc1-2)C(N)=O has a reported Tmax of 30

C[C@H](Nc1ccc2c(c1F)OCCn1cc(N3C(=O)SC[C@H]3C(F)F)nc1-2)C(N)=O has a reported Tmax of 30

C[C@H](Nc1ccc2c(c1)OCCn1cc(N3C(=O)COC[C@H]3C(F)F)nc1-2)C(N)=O has a reported Tmax of 30

C[C@H](Nc1ccc2c(c1F)OCCn1cc(N3C(=O)OC[C@H]3C(F)F)nc1-2)C(N)=O has a reported Tmax of 30

---

assay name: Pharmacokinetic (PK) assay in mice
Assay type: in vivo
assay context: male, Balb/c, mouse, plasma, po, single intragastric 5 mg/kg, read-out: Area under curve AUC0-∞
# TRUE = AUC(0-inf) below 2000 ng·h/mL (exclusive); FALSE = AUC(0-inf) at/above 2000 ng·h/mL

Q) API: query returns whether the molecule falls strictly under 2000 ng·h/mL in AUC(0-inf). Query: C[C@H](Nc1ccc2c(c1)OCCn1cc(N3C(=O)N(C)C[C@H]3C(F)F)nc1-2)C(N)=O [Example 53]
A) TRUE

Q) API: query returns whether the molecule falls strictly under 2000 ng·h/mL in AUC(0-inf). Query: C[C@H](Nc1ccc2c(c1F)OCCn1cc(N3C(=O)OC[C@H]3C(F)F)nc1-2)C(N)=O [Example 77]
A) FALSE

Q) API: query returns whether the molecule falls strictly under 2000 ng·h/mL in AUC(0-inf). Query: COC[C@H](Nc1ccc2c(c1)OCCn1cc(N3C(=O)SC[C@H]3C(F)F)nc1-2)C(N)=O [Example 110]
A) FALSE

Q) API: query returns whether the molecule falls strictly under 2000 ng·h/mL in AUC(0-inf). Query: NC(=O)[C@@H]1CCCN1c1ccc2c(c1)OCCn1cc(N3C(=O)SC[C@H]3C(F)F)nc1-2 [Example 111]
A) TRUE

Q) API: query returns whether the molecule falls strictly under 2000 ng·h/mL in AUC(0-inf). Query: C[C@H](Nc1ccc2c(c1)OCCn1cc(N3C(=O)SC[C@H]3C(F)F)nc1-2)C(N)=O [Example 51]
A) FALSE

Q) API: query returns whether the molecule falls strictly under 2000 ng·h/mL in AUC(0-inf). Query: C[C@H](Nc1ccc2c(c1)OCCn1cc(N3C(=O)COC[C@H]3C(F)F)nc1-2)C(N)=O [Example 68]
A) TRUE

Q) API: query returns whether the molecule falls strictly under 2000 ng·h/mL in AUC(0-inf). Query: C[C@H](Nc1ccc2c(c1)OCCn1cc(N3C(=O)O[C@H](C)[C@H]3C(F)F)nc1-2)C(N)=O [Example 54]
A) TRUE

Q) API: query returns whether the molecule falls strictly under 2000 ng·h/mL in AUC(0-inf). Query: COC[C@H](Nc1ccc2c(c1)OCCn1cc(N3C(=O)OC[C@H]3C(F)F)nc1-2)C(N)=O [Example 90]
A) FALSE

Q) API: query returns whether the molecule falls strictly under 2000 ng·h/mL in AUC(0-inf). Query: C[C@H](Nc1ccc2c(c1F)OCCn1cc(N3C(=O)SC[C@H]3C(F)F)nc1-2)C(N)=O [Example 108]
A) FALSE

Q) API: query returns whether the molecule falls strictly under 2000 ng·h/mL in AUC(0-inf). Query: C[C@@H](C(N)=O)N(C)c1ccc2c(c1)OCCn1cc(N3C(=O)OC[C@H]3C(F)F)nc1-2 [Example 43]
A) FALSE

---

experimental target: PI3Kα (Homo sapiens)
Construct: purchased Promega V1721
Sequence (P42336 whole entry): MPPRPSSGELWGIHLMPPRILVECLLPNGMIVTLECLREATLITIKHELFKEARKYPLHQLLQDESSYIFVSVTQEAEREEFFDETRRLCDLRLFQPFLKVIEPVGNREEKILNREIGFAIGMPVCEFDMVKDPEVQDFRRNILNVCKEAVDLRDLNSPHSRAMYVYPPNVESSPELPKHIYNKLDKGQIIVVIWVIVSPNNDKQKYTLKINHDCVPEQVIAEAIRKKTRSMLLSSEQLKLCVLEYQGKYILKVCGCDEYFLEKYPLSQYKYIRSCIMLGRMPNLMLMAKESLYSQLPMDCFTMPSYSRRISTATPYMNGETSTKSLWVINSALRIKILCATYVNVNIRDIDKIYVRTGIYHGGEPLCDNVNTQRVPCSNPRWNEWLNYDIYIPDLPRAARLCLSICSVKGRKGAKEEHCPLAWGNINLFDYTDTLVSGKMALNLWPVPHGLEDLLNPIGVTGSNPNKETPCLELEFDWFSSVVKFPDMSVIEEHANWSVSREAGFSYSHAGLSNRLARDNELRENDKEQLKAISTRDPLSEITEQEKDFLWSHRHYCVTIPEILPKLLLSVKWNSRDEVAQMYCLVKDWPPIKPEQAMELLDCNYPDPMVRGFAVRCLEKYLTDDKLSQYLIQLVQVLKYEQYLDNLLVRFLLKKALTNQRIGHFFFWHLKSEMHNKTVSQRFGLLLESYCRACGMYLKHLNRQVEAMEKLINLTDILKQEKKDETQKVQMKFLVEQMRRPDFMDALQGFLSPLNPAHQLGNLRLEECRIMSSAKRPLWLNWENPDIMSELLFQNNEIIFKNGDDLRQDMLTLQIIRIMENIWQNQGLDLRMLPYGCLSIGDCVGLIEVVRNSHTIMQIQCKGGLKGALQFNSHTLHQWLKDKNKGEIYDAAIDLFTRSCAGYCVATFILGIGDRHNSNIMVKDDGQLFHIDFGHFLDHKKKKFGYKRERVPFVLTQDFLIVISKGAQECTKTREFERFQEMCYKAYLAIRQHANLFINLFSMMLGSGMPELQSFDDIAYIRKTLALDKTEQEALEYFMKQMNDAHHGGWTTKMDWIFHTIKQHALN
Sequence (P27986 whole entry partner): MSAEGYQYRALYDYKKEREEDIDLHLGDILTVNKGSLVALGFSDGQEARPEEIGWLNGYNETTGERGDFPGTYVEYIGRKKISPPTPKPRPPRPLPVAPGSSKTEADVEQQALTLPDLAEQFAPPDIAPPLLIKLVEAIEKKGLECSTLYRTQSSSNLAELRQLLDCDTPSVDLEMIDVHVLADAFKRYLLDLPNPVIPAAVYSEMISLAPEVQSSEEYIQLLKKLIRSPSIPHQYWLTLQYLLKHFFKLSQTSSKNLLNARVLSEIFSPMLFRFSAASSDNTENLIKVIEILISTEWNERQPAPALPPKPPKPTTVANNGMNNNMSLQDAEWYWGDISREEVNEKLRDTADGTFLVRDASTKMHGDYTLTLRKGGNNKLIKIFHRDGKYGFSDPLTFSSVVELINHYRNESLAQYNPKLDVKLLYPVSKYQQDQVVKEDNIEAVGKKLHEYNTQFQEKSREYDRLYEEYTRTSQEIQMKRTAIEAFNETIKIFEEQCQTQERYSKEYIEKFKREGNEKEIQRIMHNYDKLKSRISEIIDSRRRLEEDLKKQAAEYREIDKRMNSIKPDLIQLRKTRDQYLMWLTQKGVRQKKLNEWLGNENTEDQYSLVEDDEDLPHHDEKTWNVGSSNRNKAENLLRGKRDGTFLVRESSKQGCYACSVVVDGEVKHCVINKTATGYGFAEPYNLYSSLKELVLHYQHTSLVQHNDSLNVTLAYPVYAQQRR
assay name: ADP-Glo lipid kinase assay, PI3Kα kinase activity
Format: biochemical
assay context: ratio of IC50 PI3Kδ to IC50 PI3Kα
observed property: Selectivity of PI3Kα vs PI3Kδ

C[C@H](Nc1ccc2c(c1)OCCn1cc(N3CC(F)(F)COC3=O)nc1-2)C(N)=O [Example 66] has a reported Selectivity of PI3Kα vs PI3Kδ of 70

C[C@H](Nc1ccc2c(c1)OCCn1cc(N3C(=O)COC[C@H]3C(F)F)nc1-2)C(N)=O [Example 68] has a reported Selectivity of PI3Kα vs PI3Kδ of 63

C[C@H](Nc1ccc2c(c1)OCCn1cc(N3C(=O)CN(C)C[C@H]3C(F)F)nc1-2)C(N)=O [Example 69] has a reported Selectivity of PI3Kα vs PI3Kδ of 68
